Tested on: HT29 colon
Assay: NCI-60 one-dose screen, 48 h
Details: 10 µM unless noted
The panel holds about 83,000 compounds, 20% with a hit somewhere; the sample as a whole holds those more often. Activity calls are given as the source filed them. Rule for the calls: active = growth percent below 10; inactive = the rest.
Form entry, call: pick from Yes (active), No (inactive)

Below are worked cases with known answers.
C=C(C)C1CCC(=C)C2CCC3(C)OC12/C=C(/COC(C)=O)CCC3O (stereo not given) | No
Cc1c2c(cn1Cc1ccccc1)CCc1cn(C)nc1-2 | No
O=C1/C(=C/c2ccc([N+](=O)[O-])cc2)COc2ccc(O)c(O)c21 | Yes
COc1ccc(-c2nc3ccccn3c2/C=C/C(=O)c2cc(OC)c(OC)c(OC)c2)cc1 | No

Tell me the assay call for CCOC(=O)c1nnn(C(Cc2ccccc2Cl)C(=O)OCC)c1C (stereo not given) please.
No
